experiment: Pharmacokinetic assessment in healthy fed male volunteers after oral tablet administration, plasma quantified by MSPE-HPLC-UV; conditions: human, in vivo, 25 mg
PROPERTY_LABEL: Cmax (ng/mL)
# output: bare number, implied unit ng/mL

Entry "OC[C@H]1O[C@@H](c2ccc(Cl)c(Cc3ccc(O[C@H]4CCOC4)cc3)c2)[C@H](O)[C@@H](O)[C@@H]1O" , Cmax reported as 216

* * *

Assay: Pharmacokinetic assessment in healthy fed male volunteers after oral tablet administration, plasma quantified by MSPE-HPLC-UV
Conditions: human, in vivo, 25 mg
Protocol: The chromatographic analysis was conducted using a Waters alliance e2695, (Massachusetts, USA) system which was equipped with a Waters 2487 dual wavelength detector and C18 TMS endcapping/reversed phase column (Luna 5 μm C18 100 A HPLC column 250 × 4.6 mm id, Phenomenex Co, Torrance, CA) at 40 °C. […] The column effluent was monitored at UV wavelength of 215 nm and the injection volume was 20.0 μL. […]
PROPERTY_LABEL: Tmax (h)
# output: bare number, implied unit h

Entry "OC[C@H]1O[C@@H](c2ccc(Cl)c(Cc3ccc(O[C@H]4CCOC4)cc3)c2)[C@H](O)[C@@H](O)[C@@H]1O" , Tmax reported as 2.9
